meta.source: DBAASP

system: Shigella dysenteriae
readout type: MIC

[
  {
    "molecule": "CC(C)C[C@H](NC(=O)[C@@H](NC(=O)[C@H](CCCCN)NC(=O)[C@H](CO)NC(=O)[C@H](C)NC(=O)[C@@H](NC(=O)[C@H](CCCCN)NC(=O)[C@H](Cc1ccccc1)NC(=O)[C@H](CC(C)C)NC(=O)[C@H](C)NC(=O)CNC(=O)[C@H](CC(C)C)NC(=O)[C@H](C)N)C(C)C)C(C)C)C(=O)O [ALGALFKVASKVL]",
    "MIC": "≥ 152 µM"
  },
  {
    "molecule": "CC(C)C[C@H](NC(=O)[C@H](C)NC(=O)CNC(=O)[C@H](Cc1c[nH]c2ccccc12)NC(=O)[C@@H](N)Cc1ccccc1)C(=O)N[C@@H](Cc1ccccc1)C(=O)N[C@@H](CCCCN)C(=O)N[C@H](C(=O)N[C@@H](C)C(=O)N[C@@H](CO)C(=O)N[C@@H](CCCCN)C(=O)O)C(C)C [FWGALFKVASK]",
    "MIC": "≥ 160 µM"
  }
]

[in] Lab note: need MIC with Shigella dysenteriae for entry CC[C@H](C)[C@H](NC(=O)[C@@H]1CCCN1C(=O)[C@H](Cc1ccccc1)NC(=O)[C@@H](N)Cc1ccccc1)C(=O)N[C@H](C(=O)NCC(=O)N[C@@H](CCCCN)C(=O)N[C@@H](CC(C)C)C(=O)N[C@@H](CC(C)C)C(=O)N[C@@H](Cc1ccccc1)C(=O)NCC(=O)N[C@@H](CC(C)C)C(=O)N[C@@H](Cc1ccccc1)C(=O)NCC(=O)N[C@@H](CC(C)C)C(=O)N[C@@H](CC(C)C)C(N)=O)C(C)C [FFPIVGKLLFGLFGLL] , please look it up.
[out] 5.61 µM

* * *

test system: Pseudomonas aeruginosa; test: ≥ marks a high value that may be exact or a test limit, other limits are often not marked, values filed in µg/mL are converted to µM
As shown below, each of these compounds has a reported MIC value.
Number only, in µM; omit the unit.

Below: 2 compounds and their reported MIC.
[
  {
    "smiles representation": "CC[C@H](C)[C@H](NC(=O)CN)C(=O)N[C@@H](CCSC)C(=O)N[C@@H](CO)C(=O)N[C@@H](CO)C(=O)N[C@@H](CC(C)C)C(=O)N[C@@H](CCSC)C(=O)N[C@@H](CCCCN)C(=O)N[C@@H](CCCCN)C(=O)N[C@@H](CC(C)C)C(=O)N[C@@H](C)C(=O)N[C@@H](CCCCN)C(=O)N[C@H](C(=O)N[C@H](C(=O)N[C@@H](C)C(=O)N[C@@H](CCCCN)C(N)=O)[C@@H](C)CC)[C@@H](C)CC",
    "MIC [µM]": 9.3
  },
  {
    "smiles representation": "CC(C)C[C@H](NC(=O)[C@H](Cc1ccc(O)cc1)NC(=O)[C@H](Cc1cnc[nH]1)NC(=O)[C@@H](NC(=O)[C@H](CC(C)C)NC(=O)[C@H](C)NC(=O)[C@H](C)NC(=O)[C@H](CCCCN)NC(=O)CNC(=O)[C@@H](NC(=O)[C@H](Cc1cnc[nH]1)NC(=O)[C@H](CCCCN)NC(=O)CNC(=O)[C@@H](NC(=O)[C@H](Cc1cnc[nH]1)NC(=O)[C@H](C)NC(=O)[C@H](C)NC(=O)[C@H](CCCCN)NC(=O)[C@@H](N)CCCCN)C(C)C)C(C)C)[C@@H](C)O)C(N)=O",
    "MIC [µM]": 40
  }
]

Let's switch to this compound now.
[in] What measured MIC goes with CC[C@H](C)[C@H](NC(=O)[C@H](Cc1cnc[nH]1)NC(=O)[C@H](CCCCN)NC(=O)[C@H](CC(C)C)NC(=O)[C@H](CC(C)C)NC(=O)[C@H](CO)NC(=O)[C@H](CC(C)C)NC(=O)[C@H](Cc1c[nH]c2ccccc12)NC(=O)[C@H](CCCCN)NC(=O)CN)C(=O)N[C@@H](CC(C)C)C(=O)N[C@@H](CCCCN)C(N)=O ?
[out] 31.7
